Data provenance: patent US9018370B2

- method.summary: Absorbance and fluorescence spectra of 5-R-UMP analogues
- Type: physicochemical
- applied.conditions: fluorescence emission
measurement.label: Emmax (nm)

molecule | Emmax [nm]
CS(=O)(=O)c1cccc(-c2cn([C@@H]3O[C@H](COP(=O)(O)O)[C@@H](O)[C@H]3O)c(=O)[nH]c2=O)c1 [2k] | 382
O=Cc1ccc(-c2cn([C@@H]3O[C@H](COP(=O)(O)O)[C@@H](O)[C@H]3O)c(=O)[nH]c2=O)o1 [2n] | 431
O=C(O)c1ccc(-c2cn([C@@H]3O[C@H](COP(=O)(O)O)[C@@H](O)[C@H]3O)c(=O)[nH]c2=O)cc1 [2h] | 411
O=c1[nH]c(=O)n([C@@H]2O[C@H](COP(=O)(O)O)[C@@H](O)[C@H]2O)cc1-c1ccc(C(F)(F)F)cc1 [2i] | 383
